The origin of these recorded values is patent US11591301B2.

# key: entry, value: pIC50
Target: human IDO1 protease (Homo sapiens (Human), UniProt P14902)
Assay: Inhibitory activity against human IDO1 protease (absorbance test method)
Type: biochemical
Conditions: IDO1 (His-tag) enzyme, absorbance at 320 nm
# reply with the number alone; pIC50 is -log10 of concentration in mol/L

Would you mind telling me what pIC50 value was observed for CCNS(=O)(=O)CCNc1nonc1C(=NO)Nc1ccc(F)c(Br)c1 ?
7.13

Same lookup for O=S(=O)(CCCNc1nonc1C(=NO)Nc1ccc(F)c(Br)c1)NCCO , please.
7.29

Same lookup for O=S(=O)(CCCNc1nonc1C(=NO)Nc1ccc(F)c(Br)c1)NC1CC1 , please.
7.00

Same lookup for CC(C)NS(=O)(=O)CCNc1nonc1C(=NO)Nc1ccc(F)c(Br)c1 , please.
6.73

Same lookup for NS(=O)(=O)CCNc1nonc1C(=NO)Nc1ccc(F)c(Br)c1 , please.
7.72

Same lookup for CC(C)NS(=O)(=O)CCCNc1nonc1/C(=N/O)Nc1ccc(F)c(Br)c1 , please.
7.20

Continuing:
Would you mind telling me what pIC50 value was observed for [2H]C([2H])([2H])N(C([2H])([2H])[2H])S(=O)(=O)CCCNc1nonc1/C(=N/O)Nc1ccc(F)c(Br)c1 ?
6.97

Same lookup for CN(C)S(=O)(=O)CCNc1nonc1/C(=N/O)Nc1ccc(F)c(Br)c1 , please.
6.94

Same lookup for CCNS(=O)(=O)CCCNc1nonc1C(=NO)Nc1ccc(F)c(Br)c1 , please.
7.33

* * *

# key: entry, value: AUC
Assay: Pharmacokinetic experiment in mice (PO)
Format: in vivo
Conditions: ICR, mouse, plasma, 10 mg/kg, 10 mpk, read-out: Curve area AUC
Description: Experimental animals: ICR mice (Chengdu Dashuo Experimental Animal Co., Ltd.) 5 mg of compound (compound 4 of the present invention, using similar compound INCB-24360 in clinical Phase III as reference compound) was accurately weighed, and the corresponding vehicle was added to a final volume of 10 ml, then mixed by ultrasonic vortexing. The solution at the concentration of 0.5 mg/ml was prepared. […] Then the concentration of test compound in plasma was measured by LC/MS/MS method.
The reply should contain only the number, in ng·h/mL.

As a guide, the following entries are already answered.
Would you mind telling me what AUC value was observed for CNS(=O)(=O)CCCNc1nonc1/C(=N/O)Nc1ccc(F)c(Br)c1 ?
845

Same lookup for NS(=O)(=O)CCNc1nonc1C(=NO)Nc1ccc(F)c(Br)c1 , please.
1320

Same lookup for CCNS(=O)(=O)CCCNc1nonc1C(=NO)Nc1ccc(F)c(Br)c1 , please.
1080

Next, consider the following compound.
Would you mind telling me what AUC value was observed for [2H]C([2H])([2H])NS(=O)(=O)CCCNc1nonc1/C(=N/O)Nc1ccc(F)c(Br)c1 ?
1050

* * *

Molecular target: IDO1 protease activity in Hela cells (Homo sapiens (Human), UniProt P14902)
Sequence (P14902 whole entry): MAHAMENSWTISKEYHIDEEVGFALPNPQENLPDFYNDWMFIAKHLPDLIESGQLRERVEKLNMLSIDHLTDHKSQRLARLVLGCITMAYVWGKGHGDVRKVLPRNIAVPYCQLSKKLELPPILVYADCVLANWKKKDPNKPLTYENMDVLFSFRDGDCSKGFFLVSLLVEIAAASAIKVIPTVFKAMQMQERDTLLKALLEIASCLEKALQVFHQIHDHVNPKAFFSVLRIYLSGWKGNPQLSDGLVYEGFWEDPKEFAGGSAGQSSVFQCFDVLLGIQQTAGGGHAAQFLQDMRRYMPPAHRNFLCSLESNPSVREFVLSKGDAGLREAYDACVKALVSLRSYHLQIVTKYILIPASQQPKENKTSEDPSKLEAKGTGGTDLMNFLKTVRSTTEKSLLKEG
Test: Inhibition of IDO protease in HeLa cells (IDO/kynurenine experiment, IFN-γ induced)
Conditions: 10 ng/mL IFN-γ, 48 h, OD480 nm, read-out: IC50, inhibitory activity against IDO1 protease activity in Hela cells
Test Readout: pIC50
# reply with the number alone; pIC50 is -log10 of concentration in mol/L

Would you mind telling me what pIC50 value was observed for CNS(=O)(=O)CCNc1nonc1C(=NO)Nc1ccc(F)c(Br)c1 ?
7.72

Same lookup for CC(C)NS(=O)(=O)CCCNc1nonc1/C(=N/O)Nc1ccc(F)c(Br)c1 , please.
7.52

Same lookup for NS(=O)(=O)CCCCNc1nonc1C(=NO)Nc1ccc(F)c(Br)c1 , please.
7.92

Same lookup for O=S(=O)(CCCNc1nonc1C(=NO)Nc1ccc(F)c(Br)c1)NC1CC1 , please.
7.43

Same lookup for O=S(=O)(CCNc1nonc1C(=NO)Nc1ccc(F)c(Br)c1)NCCO , please.
7.82

Continuing:
Would you mind telling me what pIC50 value was observed for CCNS(=O)(=O)CCCNc1nonc1C(=NO)Nc1ccc(F)c(Br)c1 [Example 12] ?
7.92

Same lookup for [2H]C([2H])([2H])N(C([2H])([2H])[2H])S(=O)(=O)CCCNc1nonc1/C(=N/O)Nc1ccc(F)c(Br)c1 , please.
7.80

Same lookup for [2H]C([2H])([2H])NS(=O)(=O)CCCSc1nonc1/C(=N/O)Nc1ccc(F)c(Br)c1 , please.
7.77

Same lookup for CCNS(=O)(=O)CCCNc1nonc1C(=NO)Nc1ccc(F)c(Br)c1 [Example 17] , please.
8.00

Same lookup for CCNS(=O)(=O)CCNc1nonc1C(=NO)Nc1ccc(F)c(Br)c1 , please.
7.46

Same lookup for O=S(=O)(CCCCNc1nonc1/C(=N/O)Nc1ccc(F)c(Br)c1)N1CCC1 , please.
7.03

Same lookup for CNS(=O)(=O)CCCNc1nonc1/C(=N/O)Nc1ccc(F)c(Br)c1 , please.
8.10

Same lookup for [2H]C([2H])([2H])NS(=O)(=O)CCCSc1nonc1/C(=N/O)Nc1cccc(Br)c1F , please.
7.16

Same lookup for NS(=O)(=O)CCOCCNc1nonc1/C(=N/O)Nc1ccc(F)c(Br)c1 , please.
7.17

Same lookup for [2H]C([2H])([2H])NS(=O)(=O)CCCNc1nonc1/C(=N/O)Nc1ccc(F)c(Br)c1 , please.
8.00

Same lookup for O=S(=O)(CCCNc1nonc1C(=NO)Nc1ccc(F)c(Br)c1)NCCO , please.
7.49

Same lookup for [2H]C([2H])([2H])N(C([2H])([2H])[2H])S(=O)(=O)CCCCNc1nonc1/C(=N/O)Nc1ccc(F)c(Br)c1 , please.
7.62

Same lookup for O=S(=O)(CCCCNc1nonc1/C(=N/O)Nc1ccc(F)c(Br)c1)N1CC(F)C1 , please.
6.95

Same lookup for [2H]C([2H])([2H])NS(=O)(=O)CCCCNc1nonc1/C(=N/O)Nc1ccc(F)c(Br)c1 , please.
7.70
